This section presents compounds with their documented Tested compound UVB % values.
# ASSAY COMMENT: UVA/UVB absorption of compound films on glass slides, with and without 20 hours ageing under UV (Xenon instrument)
# Type: physicochemical
# SETUP CONDITIONS: absorption A = (Tslide−Tslide+sample)/Tslide×100; ageing for 20 hours under UV
Entry rule: numbers only, all in %.

The compound listed as COc1ccc(/N=C2\CC(C)(C)CC3=C2SCC(C(=O)O)N3)cc1 (stereo not shown) has a reported Tested compound UVB % of 98.6

Briefly, Tested compound UVB % measured for CC1(C)CC2=C(SCC(C(=O)O)N2)/C(=N/c2ccccc2)C1 (stereo not shown) : 95.6

// field: Tested compound UVB %; key: COc1ccc(/N=C2\CC(C)(C)CC3=C2SCC(C(=O)O)N3)cc1OC (stereo not shown) ; value = 99.1

# credit: patent US9487474B2
